Tested on: SK-MEL-2 melanoma
measuredMetric: GI50

compound=CC(=O)c1cc(C(=O)c2ccc3c(c2)Sc2ccccc2N3)c2c(C)cccn12 readoutvalue="0.3 µM"
compound="O=C(c1ccccc1)n1c(-c2ccccc2)cs/c1=N\\S(=O)(=O)c1ccc(N2N=C3c4ccccc4CC3C2c2cccs2)cc1 (stereo not given)" readoutvalue="> 100 µM"
compound=COc1cc(NCCN=C(N)NC(N)=NC(C)C)c2ncccc2c1 readoutvalue="1.99 µM"
compound=N#Cc1c(N)nc(NCc2ccccc2)c(C#N)c1-c1ccc(Cl)cc1Cl readoutvalue="> 77.2 µM"
compound=CCOC(=O)/C=C/C(=O)[C@H](CC(C)C)NC(=O)[C@H](Cc1ccccc1)NC(=O)OCc1ccccc1 readoutvalue="13.8 µM"

* * *

GI50 values by entry
Test system: LOX IMVI melanoma
testDescription: NCI tumour cell line growth inhibition, 48 h
measuredMetric: GI50

compound=ClCc1cccc(CSc2ncnc3c2ncn3Cc2cccc(CCl)c2)c1 readoutvalue="1400 nM"
compound=O=C(Nc1ccccc1O)c1ccc(NS(=O)(=O)c2cccc3cccnc23)cc1 readoutvalue="1230 nM"
compound=Nc1ccccc1C#C/C=C\C#Cc1c(F)c(F)c(F)c(F)c1F readoutvalue="2680 nM"
compound=Cc1ccc(-c2nc(-c3cn(C)c4ncccc34)cs2)cc1 readoutvalue="5060 nM"
compound=O=c1oc2ccc(-c3ccc(F)cc3F)cc2c(=O)n1-c1ccc(Cl)c(C(F)(F)F)c1 readoutvalue="2180 nM"
compound=N#Cc1c(N)nc(NCc2ccccc2)c(C#N)c1-c1ccc(Cl)cc1Cl readoutvalue="> 100000 nM"
compound=O=C(N/N=C/c1cc(Cl)cc(Cl)c1[O-])c1ccccc1.O=C(N/N=C/c1cc(Cl)cc(Cl)c1[O-])c1ccccc1.[Co+2] readoutvalue="9190 nM"
compound=CN(C)c1ccc(/C=c2/c3ccccc3n3c2c2cc(F)ccc2[n+]3C)cc1 readoutvalue="11700 nM"
compound="COc1cc(C2C3=C(COC3=O)N(CCO)c3cc4c(cc32)OCO4)cc(OC)c1O (configuration not stated)" readoutvalue="2500 nM"
compound=CCOC(=O)/C=C/C(=O)[C@H](CC(C)C)NC(=O)[C@H](Cc1ccccc1)NC(=O)OCc1ccccc1 readoutvalue="1760 nM"
compound=COc1ccccc1NS(=O)(=O)c1ccc2oc(SC(C)C)nc2c1 readoutvalue="12700 nM"
compound=O=C(NCCNc1nccc(-c2c(-c3cccc(O)c3)nc3sccn23)n1)c1ccccc1 readoutvalue="3220 nM"

* * *

Tested on: IGROV1 ovarian
testDescription: NCI tumour cell line growth inhibition, 48 h
This section presents compounds with their documented TGI values.
measuredMetric: TGI

compound=O=[N+]([O-])/C(C(Cl)=C(Cl)Cl)=C(\N1CCCCC1)n1nnc2ccccc21 system="IGROV1 ovarian" measuredmetric=TGI readoutvalue="34.1 µM"
compound=CC(C)(C)OC(=O)c1cccnc1/C=N/O system="IGROV1 ovarian" measuredmetric=TGI readoutvalue="> 100 µM"
compound=COC(=O)/C=c1\s/c(=C\C(=O)OC)c2ccccc12 system="IGROV1 ovarian" measuredmetric=TGI readoutvalue="> 100 µM"
compound=COc1ccccc1NCc1cccc2c(=O)c3ccc(Cl)cc3oc12 system="IGROV1 ovarian" measuredmetric=TGI readoutvalue="> 100 µM"
compound=O=c1cc(-c2ccccc2)oc2cc(OC/C(=N/O)c3ccc(F)cc3)ccc12 system="IGROV1 ovarian" measuredmetric=TGI readoutvalue="> 50 µM"
compound="O=C1c2ccccc2C(=O)c2c(NCC3CO3)ccc(NCC3CO3)c21 (stereo unspecified)" system="IGROV1 ovarian" measuredmetric=TGI readoutvalue="15.9 µM"
compound=Cc1ccc(-c2nc(-c3cn(C)c4ncccc34)cs2)cc1 system="IGROV1 ovarian" measuredmetric=TGI readoutvalue="32.2 µM"
compound=Cn1c(=S)c2[nH]c(SCCN3C(=O)c4ccccc4C3=O)nc2n(C)c1=O system="IGROV1 ovarian" measuredmetric=TGI readoutvalue="> 100 µM"
compound=CSc1c(CC(=O)Nc2ccc(Cl)cc2)n(Cc2ccccc2)c2ccccc12 system="IGROV1 ovarian" measuredmetric=TGI readoutvalue="> 100 µM"
compound="CC(CN(C)C)C(=O)c1ccccc1 (stereo unspecified)" system="IGROV1 ovarian" measuredmetric=TGI readoutvalue="> 100 µM"
compound=COC(=O)/C=C\C(C#N)(C#N)N=Cc1sccc1C system="IGROV1 ovarian" measuredmetric=TGI readoutvalue="29 µM"
